Just for reference, ChEMBL document CHEMBL2390955 is where these values come from.

# Tested on: SMMC-7721
# Method Notes: Cytotoxicity against human SMMC7721 cells assessed as growth inhibition by MTT assay
# Format: functional, cell-based
pIC50: −log10 of the molar value.

| Smiles Record | pIC50 |
| --- | --- |
| CO/C=C(/C(=O)OC)c1ccccc1COc1nc(Nc2ccc(Cl)cc2Cl)nc(C(F)(F)F)c1C | 5.34 |

---

# Method Notes: Cytotoxicity against human EC9706 cells assessed as growth inhibition by MTT assay
# Format: functional, cell-based
Measurement Label: IC50

| Smiles Record | Recorded Measurement |
| --- | --- |
| CO/C=C(/C(=O)OC)c1ccccc1COc1nc(Nc2ccc(Cl)cc2Cl)nc(C(F)(F)F)c1C | 440 nM |
